- Tested on: HT-29
- Test summary: Inhibition of Wnt signaling in human HT29 cells assessed as inhibition of beta-catenin-mediated Tcf/Lef transcriptional activity after 24 hrs by dual luciferase reporter gene assay relative to control
- Assay type: cell-based
- Experimental setup: HT-29, 24 h
Property label: IC50 (µM)

Past entries and their recorded results:
CNc1ccc(-c2cn3c(OC)cc(OC)nc3n2)cc1: 72.2
COc1cc(OC)n2cc(-c3ccc([N+](=O)[O-])cc3)nc2n1: 57.8
COc1cc(OC)n2cc(-c3ccc(N(Cc4ccccc4)Cc4ccccc4)cc3)nc2n1: 67
Cc1ccc2nc(-c3ccc(N)cc3)cn2c1: 52.6
Cc1ccn2cc(-c3ccc([N+](=O)[O-])cc3)nc2c1: 23.1

[I] Cc1ccn2cc(-c3ccc(N)cc3)nc2c1
[II] Cc1ccn2cc(-c3ccc(NCc4ccccc4)cc3)nc2c1
[III] CCCSc1nc(NC(C)=O)cc(OCc2ccccc2)n1
In this exercise, place the 3 molecules in ascending sequence of their recorded IC50. Write the labels in rank order as requested. II, I, III
(II: 17.8 µM, I: 42.2 µM, III: 81.8 µM)

[P] Cc1cc(O)n2cc(-c3ccc([N+](=O)[O-])cc3)nc2n1
[Q] Cc1cc(OCc2ccccc2)n2cc(-c3ccc([N+](=O)[O-])cc3)nc2n1
Lab note: check whether P or Q has the lower measured IC50. Reply briefly: the label of your chosen item. P

---

- Tested on: HT-29
- Test summary: Inhibition of Wnt signaling in human HT29 cells assessed as inhibition of beta-catenin-mediated Tcf/Lef transcriptional activity after 24 hrs by dual luciferase reporter gene assay relative to control
- Assay type: cell-based
- Experimental setup: HT-29, 24 h
pIC50: −log10 of the molar value.
Property label: pIC50

Cc1ccn2cc(-c3ccc(N(Cc4ccccc4)Cc4ccccc4)cc3)nc2c1: 4.62

[1] COc1cc(OC)n2cc(-c3ccc(NCc4ccccc4)cc3)nc2n1
[2] CC(C)COc1cc(N)nc(SCc2ccccc2)n1
[3] COc1cc(OC)n2cc(-c3ccc(N)cc3)nc2n1
Could you please sort these 3 entries by pIC50 from high to low? Write the labels in rank order as requested. 3, 1, 2
(3: 4.84, 1: 4.46, 2: 4.14)

---

- Test summary: Antiproliferative activity against human fibroblasts after 72 hrs by MTT assay
- Type: cell-based, Fibroblast
Item-by-item account of GI50 at 72 h

Past entries and their recorded results:
Cc1ccn2cc(-c3ccc(NCc4ccccc4)cc3)nc2c1: > 100 µM
Cc1ccc2nc(-c3ccc(NCc4ccccc4)cc3)cn2c1: > 100 µM
Cc1cc(O)n2cc(-c3ccc([N+](=O)[O-])cc3)nc2n1: > 100 µM

Proceeding to the next molecule to report its GI50 at 72 h.
For record Cc1ccn2cc(-c3ccc(N(Cc4ccccc4)Cc4ccccc4)cc3)nc2c1 the listed GI50 at 72 h is 52.3 µM

---

- System: HT-29
- Test summary: Inhibition of Wnt signaling in human HT29 cells assessed as inhibition of beta-catenin-mediated Tcf/Lef transcriptional activity after 24 hrs by dual luciferase reporter gene assay relative to control
- Type: cell-based
- Experimental setup: HT-29, 24 h
pIC50: −log10 of the molar value.
Property label: pIC50

Past entries and their recorded results:
CC(=O)Nc1cc(OCc2ccccc2)nc(SCc2ccccc2)n1: 4.34
O=C1[C@H](Cc2ccc(O)cc2)N2C(=O)CCN(C(=O)NCc3ccccc3)[C@H]2CN1Cc1cccc2ccccc12: 4.73
Cc1ccc2nc(-c3ccc(NC(=O)c4ccccc4C(=O)O)cc3)cn2c1: 5.01

[I] Cc1ccc2nc(-c3ccc(N(Cc4ccccc4)Cc4ccccc4)cc3)cn2c1
[II] CC(=O)Nc1cc(=O)n(CC(C)C)c(SCc2ccccc2)n1
Hi, I'm comparing I with II and wondering which one has the bigger number for pIC50. Any idea? Reply briefly: the label of your chosen item. I
